read-out: Urokinase-type plasminogen activator receptor (uPAR), PLAUR (gene 5329); assay: BSK_BE3C_uPAR: BioMAP Diversity Plus: BE3C Assay for Urokinase-type plasminogen activator receptor (uPAR) Biomarker Activity (AID 2283039); conditions: primary human bronchial epithelial cells; actives raise or lower the signal;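 for outcome: uPAR protein level measured by ELISA on the cells; cells exposed to compound for one day before measurement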
Active and inactive are the calls of the source. Rule for the calls: active = hit-call score of the fitted dose curve at least 0.9, where 1 is the maximum; inactive = score below 0.9.
Write down one outcome, taken from active, inactive

For orientation, consider the following solved cases.
{"columns": ["Compound", "Group"],
 "data": [
  ["Nn1cnnc1", "inactive"],
  ["CCC(C)c1cc([N+](=O)[O-])cc([N+](=O)[O-])c1O (centres undefined)", "inactive"],
  ["CC(C)C(=O)OCC(C)(C)C(OC(=O)C(C)C)C(C)C (centres undefined)", "inactive"],
  ["CCC(C)(c1ccc(O)cc1)c1ccc(O)cc1", "inactive"],
  ["N#Cc1ccc(N(CC(N)=O)CC(F)(F)F)cc1C(F)(F)F", "inactive"],
  ["O=NN(c1ccccc1)c1ccccc1", "inactive"],
  ["CCCCCCCCCc1ccc(O)cc1", "active"],
  ["Cc1cc(O)ccc1Cl", "inactive"]
]}

Qu. Please indicate how the test categorized "Oc1ccc(Cl)cc1Cl" .
Ans. inactive

Qu. Next up: "Cc1cccc(C)c1N"
Ans. inactive

Qu. Next entry: "Cc1ccccc1[N+](=O)[O-]"
Ans. inactive

----------
assay: CCTE_Shafer_MEA_acute_burst_percentage_std: CCTE's Neural Acute Assay for Standard Deviation of Burst Percentage, Shafer Lab (AID 2284018);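 note: fitted in the negative direction so actives lower burst percentage SD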
Activity calls are given as the source filed them. The calls were made as follows: active = hit-call score of the fitted dose curve at least 0.9, where 1 is the maximum; inactive = score below 0.9.
Reported Property: AC50

{"columns": ["Chemical Structure", "AC50"],
 "data": [
  ["ClC1=C(Cl)[C@]2(Cl)[C@@H]3[C@@H]4C[C@@H]([C@H]5O[C@@H]45)[C@@H]3[C@@]1(Cl)C2(Cl)Cl", "inactive"],
  ["CCSC(=O)N(CC)C1CCCCC1", "inactive"],
  ["O=C(N[C@H]1CN2CCC1CC2)c1cc2ccoc2cn1", "inactive"],
  ["COc1ccc(O)c(C(C)(C)C)c1", "inactive"],
  ["CC(c1ccc(O)cc1)(c1ccc(O)cc1)c1ccc(O)cc1", "32.9 µM (active)"]
]}

API: the following record is the query input.
Qu. Recorded AC50 of "CCC(C)(c1ccc(O)cc1)c1ccc(O)cc1" , please.
Ans. inactive

----------
read-out: Tissue Factor, F3 (gene 2152); experiment: BSK_CASM3C_TissueFactor: BioMAP Diversity Plus: CASM3C Assay for Tissue Factor Biomarker Activity (AID 2283052); conditions: primary human coronary artery smooth muscle cells; actives raise or lower the signal;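 note: cell surface tissue factor protein level read by ELISA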
Activity calls are given as the source filed them. The calls were made as follows: active = hit-call score of the fitted dose curve at least 0.9, where 1 is the maximum; inactive = score below 0.9.
Result category, one only: yes for active, no for inactive

Known results for compounds:
{"columns": ["Compound", "Group"],
 "data": [
  ["C=CC(=O)NCNC(=O)C=C", "no"],
  ["Clc1ccc(Cl)cc1", "no"]
]}

Qu. Hey, what did the test say about "O=S(=O)(O)C(F)(F)C(F)(F)C(F)(F)C(F)(F)F" ?
Ans. no

Qu. For "Sc1ccccc1" then?
Ans. no

Qu. Another compound to check: "CC1=C2C[C@H]3[C@@H](CC=C4C[C@@H](O)CC[C@@]43C)[C@@H]2CC[C@]12O[C@@H]1C[C@H](C)CN[C@H]1[C@H]2C"
Ans. no

Qu. Can you handle "CC#Cc1cc(C)nc(Nc2ccccc2)n1" next?
Ans. no

Qu. Also "CCC(C)(c1ccc(O)cc1)c1ccc(O)cc1" , if possible.
Ans. no

Qu. "CN(C)c1nc(=O)n(C2CCCCC2)c(=O)n1C" , same question.
Ans. no

Qu. Likewise for "CCCCCCCCOC(=O)c1ccccc1C(=O)OCCCCCCCC" ?
Ans. no

Qu. Check "CCCCCCCCCc1ccc(O)cc1" too.
Ans. yes

Qu. Subsequent entry: "CCC(C)(CC)c1cc(NC(=O)c2c(OC)cccc2OC)on1"
Ans. no

Qu. One more compound: "c1ccc(-c2ccccc2)cc1"
Ans. no

Qu. Another compound: "CC(C)(O)C(=O)Nc1ccc([N+](=O)[O-])c(C(F)(F)F)c1"
Ans. no

Qu. Do the same for "CCCCCCOC(=O)c1ccccc1C(=O)OCCCCCC" please
Ans. no

Qu. Another compound: "O=S(=O)(O)C(F)(F)C(F)(F)C(F)(F)C(F)(F)C(F)(F)C(F)(F)F"
Ans. no

Qu. // same read-out, input: "ClC1=C(Cl)[C@]2(Cl)[C@@H]3[C@@H]4C[C@@H]([C@H]5O[C@@H]45)[C@@H]3[C@@]1(Cl)C2(Cl)Cl"
Ans. no

Qu. Next up: "C[C@]12CCC(=O)C=C1CC[C@@H]1[C@@H]2CC[C@@]2(C)[C@H]1CC[C@]2(C)O"
Ans. no

Qu. Continue with "Cc1ccc(O)c(C)c1"
Ans. no

Qu. Can you check "CCC(=O)O[C@H]1CC[C@H]2[C@@H]3CCC4=CC(=O)CC[C@]4(C)[C@H]3CC[C@]12C" next?
Ans. no

Qu. And then "O=C(NC(=O)c1cc(F)c(F)cc1Cl)Nc1cc(F)ccc1N1CCC(C(=O)O)CC1" , what is it?
Ans. no

Qu. Would you mind doing "Cc1ccccc1O" as well?
Ans. no

Qu. Lookup "ClC1=C(Cl)[C@]2(Cl)[C@@H]3[C@H]4C[C@H]([C@@H]5O[C@H]45)[C@@H]3[C@@]1(Cl)C2(Cl)Cl"
Ans. yes

Qu. For "ClC(Cl)=C(c1ccc(Cl)cc1)c1ccc(Cl)cc1" then?
Ans. no

Qu. How about this compound: Clc1ccc(C(c2ccccc2Cl)C(Cl)(Cl)Cl)cc1 (centres undefined)
Ans. no

Qu. Continue with "Nc1ccc(-c2ccc(N)cc2)cc1"
Ans. no

Qu. Check "O=NN(c1ccccc1)c1ccccc1" too.
Ans. no
